System: HS 578T breast
EXPERIMENTAL PROTOCOL: NCI tumour cell line growth inhibition, 48 h
MEASUREMENT LABEL: GI50

Worked cases, GI50 given:
MOLECULE	MEASUREMENT TARGET	GI50
CCN(CC)CCOC(COc1cc(C)cc(C)c1)COc1cc(C)cc(C)c1	HS 578T breast	4220 nM
CCCCCCCCCCCC1N=C(N)N=C(N)N1c1cccc(Br)c1 (stereo not drawn)	HS 578T breast	2080 nM

Let's switch to this molecule now.
Enquiry: GI50 lookup needed for CC[C@H](C)[C@H](NC(=O)C12C3C4C1C1C2C3C41NC)C(=O)N(C)[C@H](C[C@@H](OC(C)=O)c1nc(C(=O)N[C@@H](Cc2ccccc2)C[C@H](C)C(=O)OC)cs1)C(C)C (stereo partly drawn) , thanks.
Return: 693 nM

----------
Tested on: DU-145 prostate
EXPERIMENTAL PROTOCOL: NCI tumour cell line growth inhibition, 48 h
MEASUREMENT LABEL: GI50

Worked cases, GI50 given:
                           molecular_string  measurement_label    result
0  N[C@@H]1CCCN(c2c(Br)cnc3[nH]cc(NC(=O)C4CC4)c23)C1               GI50    459 nM
1  Cn1c(=O)c(-c2ccccc2Cl)cc2cnc(NC3CCOCC3)nc21               GI50  12300 nM
2  CCc1ccc2c(c1)C(=O)c1c-2n(CCCN)c(=O)c2cc(OC)c(OC)cc12               GI50   1620 nM
3  Cc1cc(N2CCC(N3CCCC3)CC2)nc(/N=C(\N)Nc2ccc(Cl)c(Cl)c2)n1               GI50   1750 nM
4  CCn1cc(C(=O)O)c(=O)c2cc(F)c(N3CCN(S(=O)(=O)c4ccc(Cl)cc4Cl)CC3)cc21               GI50   2810 nM
5           COc1ccc2nc3ccccc3c(NCCNCCO)c2c1               GI50    588 nM
6  NC(=NCCCCCCN=C(N)/N=C(\N)Nc1ccc(Cl)cc1)/N=C(\N)Nc1ccc(Cl)cc1               GI50   1930 nM
7  CC1(C)N=C(N)N=C(N)N1c1ccc(CCCC(=O)Nc2ccc(S(=O)(=O)F)cc2)cc1               GI50   6980 nM
8                   S=c1ssnc1-c1cc2ccccc2o1               GI50   7350 nM

Let's switch to this compound now.
Enquiry: GI50 lookup needed for Clc1ccc(C=Nc2ccc(-c3nc4ccccc4[nH]3)cc2)cc1 , thanks.
Return: > 100000 nM

----------
Test system: TK-10 renal
EXPERIMENTAL PROTOCOL: NCI tumour cell line growth inhibition, 48 h
Catalogue of TGI readings, one per entry.
Write the answer as a number in µM, unit excluded.

>>> print(df.to_string())
                           molecular_string  number
0  COC(=O)c1c(C)nc(C)c2c1C(=O)C(Br)=C(NCc1ccccc1)C2=O    21.9

Enquiry: TGI lookup needed for CCN(CC)CCOC(COc1cc(C)cc(C)c1)COc1cc(C)cc(C)c1 , thanks.
Return: 14.5
